Please provide measured IC50 for the entries that follow.
Test system: PBMCs
METHOD NOTES: LPS-induced IL-8 release in PBMC cells (assay b)
Assay type: cell-based, human
CONDITION CONTEXT: Homo sapiens, PBMC; LPS-stimulated PBMCs; read-out: IC50 Values for Inhibition of Cytokine Release, PBMCs IL-8

# return IC50 for COCCOCCOCCNC(=O)c1cc(C(C)(C)C)cc(NC(=O)Nc2ccc(Oc3ccnc(Nc4cc(OC)cc(OCCOCCOCCOC)c4)n3)c3ccccc23)c1OC , test system: PBMCs
4.6 nM

Find IC50 for COc1c(NC(=O)Nc2ccc(Oc3ccnc(Nc4cc(C)c5[nH]ncc5c4)n3)c3ccccc23)cc(C(C)(C)C)cc1[S+](C)[O-] (stereo not drawn) on PBMCs and write it down.
1.6 nM

Give IC50 only, for COc1c(NC(=O)Nc2ccc(Oc3ccnc(Nc4ccccc4)c3)c3ccccc23)cc(C(C)(C)C)cc1C(=O)NCCN1CCOCC1 , using PBMCs data.
3.3 nM

Please report IC50 with PBMCs for item COc1cc(Nc2cc(Oc3ccc(NC(=O)Nc4cc(C(C)(C)C)cc(OCC(CO)(CO)CO)c4OC)c4ccccc34)ccn2)cc(C(N)=O)c1 .
5.6 nM

Lab note: record IC50 of COCCOCCOCCOc1cc(Nc2cc(Oc3ccc(NC(=O)Nc4cc(C(C)(C)C)cc(CP(C)(C)=O)c4OC)c4ccccc34)ccn2)cc(OC)c1 tested on PBMCs.
0.8 nM

Provide IC50, system PBMCs, entry COc1c(NC(=O)Nc2ccc(Oc3ccnc(N[C@H]4CCOC4)n3)c3ccccc23)cc(C(C)(C)C)cc1P(C)(C)=O
1.8 nM

----------
TESTED SYSTEM: Syk (Homo sapiens (Human))
OBSERVABLE: Kd (nM)
The reply should contain only the number, in nM.

Tell me its Kd given COc1cc(Nc2cc(Oc3ccc(NC(=O)Nc4cc(C(C)(C)C)cc(P(C)(C)=O)c4OC)c4ccccc34)ccn2)cc(C(N)=O)c1 as the entry.
5.1

----------
TESTED SYSTEM: p38 MAPKα isoform (MAPK14) (Homo sapiens (Human), UniProt Q16539)
Sequence (Q16539 whole entry, canonical isoform): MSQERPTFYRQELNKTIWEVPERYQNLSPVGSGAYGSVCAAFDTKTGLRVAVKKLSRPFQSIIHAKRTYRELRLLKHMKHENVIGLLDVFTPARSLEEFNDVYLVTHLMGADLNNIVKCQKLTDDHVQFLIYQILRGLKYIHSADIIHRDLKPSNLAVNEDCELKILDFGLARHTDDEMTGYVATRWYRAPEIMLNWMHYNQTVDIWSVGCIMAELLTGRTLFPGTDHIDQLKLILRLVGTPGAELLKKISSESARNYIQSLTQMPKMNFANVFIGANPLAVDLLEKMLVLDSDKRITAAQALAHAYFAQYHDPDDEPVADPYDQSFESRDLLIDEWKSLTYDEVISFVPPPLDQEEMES
METHOD NOTES: p38 MAPKα enzyme inhibition (FRET, Z-LYTE, Method 2)
Format: biochemical
OBSERVABLE: pIC50
Here pIC50 is given on a logarithmic scale as minus log10 of the concentration in mol/L.

# return recorded pIC50 for input COc1c(CC(N)=O)cc(C(C)(C)C)cc1NC(=O)Nc1ccc(Oc2ccnc(Nc3cc(C#N)cc(OCCN4CCOCC4)c3)c2)c2ccccc12
6.91

Consider the molecule COc1c(CNC(C)=O)cc(C(C)(C)C)cc1NC(=O)Nc1ccc(Oc2ccnc(Nc3ccccc3)c2)c2ccccc12 . State its measured pIC50.
6.53

Report measured pIC50; entry is COc1cc(Nc2cc(Oc3ccc(NC(=O)Nc4cc(C(C)(C)C)cc(CC(N)=O)c4OC)c4ccccc34)ccn2)cc(C(=O)NCCCN2CC[S+]([O-])CC2)c1
7.89

Consider the molecule COc1cc(Nc2cc(Oc3ccc(NC(=O)Nc4cc(C(C)(C)C)cc(C[S+](C)[O-])c4OC)c4ccccc34)ccn2)cc(C(=O)NCCN2CCOCC2)c1 (stereo not drawn) and give its recorded pIC50.
7.82

Determine from records and report pIC50 for COc1cc(Nc2cc(Oc3ccc(NC(=O)Nc4cc(C(C)(C)C)cc(CNC(C)=O)c4OC)c4ccccc34)ccn2)cc(C(=O)NCCN2CC[S+]([O-])CC2)c1
7.60

Report pIC50 for COc1c(CS(C)(=O)=O)cc(C(C)(C)C)cc1NC(=O)Nc1ccc(Oc2ccnc(Nc3ccccc3)c2)c2ccccc12
6.68

Name the recorded pIC50 of the molecule listed here: COc1c(NC(=O)Nc2ccc(Oc3ccnc(Nc4ccccc4)c3)c3ccccc23)cc(C(C)(C)C)cc1P(C)(C)=O
6.85

Using known records, supply pIC50 for COc1cc(Nc2nccc(Oc3ccc(NC(=O)Nc4cc(C(C)(C)C)cc(P(C)(C)=O)c4OC)c4ccccc34)n2)cc(OC)c1
6.66

Dear colleague, please send me the reported pIC50 for COc1cc(Nc2cc(Oc3ccc(NC(=O)Nc4cc(C(C)(C)C)cc(OCCO)c4OC)c4ccccc34)ccn2)cc(C(N)=O)c1 when you can.
6.68

Supply pIC50 value. Item: COc1cc(Nc2cc(Oc3ccc(NC(=O)Nc4cc(C(C)(C)C)cc(P(C)(C)=O)c4OC)c4ccccc34)ccn2)cc(C(N)=O)c1
7.21

State its pIC50: COc1cc(Nc2cc(Oc3ccc(NC(=O)Nc4cc(C(C)(C)C)cc(P(C)(C)=O)c4OC)c4ccccc34)ccn2)cc(S(=O)(=O)N(C)CCN2CCN(C)CC2)c1
8.22

For the molecule COc1cc(Nc2cc(Oc3ccc(NC(=O)Nc4cc(C(C)(C)C)cc(OC(CO)CO)c4OC)c4ccccc34)ccn2)cc(C(N)=O)c1 , give its reported pIC50.
6.65
